# MEASURED ON: full length AKT E17K (Homo sapiens, UniProt P31749, E17K)
# Construct: host or cells: HEK-293 (ATCC CRL-1573)
# Sequence (P31749 whole entry E17K): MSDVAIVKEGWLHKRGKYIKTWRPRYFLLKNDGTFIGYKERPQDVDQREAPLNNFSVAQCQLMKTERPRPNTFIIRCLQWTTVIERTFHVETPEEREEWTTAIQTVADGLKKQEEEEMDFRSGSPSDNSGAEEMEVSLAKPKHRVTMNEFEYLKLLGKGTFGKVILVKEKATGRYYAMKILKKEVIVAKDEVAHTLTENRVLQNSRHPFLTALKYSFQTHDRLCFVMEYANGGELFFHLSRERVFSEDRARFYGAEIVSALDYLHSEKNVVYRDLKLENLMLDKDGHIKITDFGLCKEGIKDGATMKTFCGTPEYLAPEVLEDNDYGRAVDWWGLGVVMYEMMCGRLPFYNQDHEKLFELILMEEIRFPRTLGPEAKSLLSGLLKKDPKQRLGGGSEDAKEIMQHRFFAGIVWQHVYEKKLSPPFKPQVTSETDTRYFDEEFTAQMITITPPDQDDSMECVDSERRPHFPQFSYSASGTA
# PROTOCOL DESCRIPTION: NanoBRET Target Engagement (TE) Assay
# Format: cell-based
# ASSAY CONTEXT: competitive tracer displacement in living cells, read-out: AKT1 E17K IC50
# Lookup of reported IC50 keyed by entry

MOLECULE | IC50
N#Cc1nccc(NC2CCN(Cc3ccc(-n4c(-c5cccnc5N)nc5ccc(-c6ccccc6F)nc54)cc3)CC2)n1 | < 15 nM

Consider the molecule N#Cc1nc2cc(F)cc(C(=O)NC3CCN(Cc4ccc(-n5c(-c6cccnc6N)nc6cccnc65)cc4)CC3)c2s1 and give its measured IC50. 60 to 600 nM

Consider the molecule N#Cc1nccc(NC2CCN(Cc3ccc(-n4c(-c5cccnc5N)nc5ccc(N6CCOCC6)nc54)cc3)CC2)n1 and give its measured IC50. < 15 nM

Consider the molecule N#Cc1ncnc(N2CC3CCC(C2)N3Cc2ccc(-n3c(-c4cccnc4N)nc4ccc(-c5ccccc5)nc43)cc2)n1 and give its measured IC50. 15 to 60 nM

---

# MEASURED ON: full length AKT E17K (Homo sapiens, UniProt P31749, E17K)
# Construct: host or cells: HEK-293 (ATCC CRL-1573)
# PROTOCOL DESCRIPTION: NanoBRET Target Engagement (TE) Assay
# Type: cell-based
# ASSAY CONTEXT: competitive tracer displacement in living cells, read-out: AKT1 E17K IC50
pIC50: −log10 of the molar value.
ASSAY ENDPOINT: pIC50

Observe how each entry below is paired with its result.
MOLECULE | pIC50
N#Cc1nccc(N2CC3CCC(C2)N3Cc2ccc(-n3c(-c4cccnc4N)nc4ccc(-c5ccccc5)nc43)cc2)n1 [Example 211] | > 7.82
N#Cc1nccc(N2C[C@H]3C[C@@H]2CN3Cc2ccc(-n3c(-c4cccnc4N)nc4ccc(-c5ccccc5)nc43)cc2)n1 [Example 216] | > 7.82

Now look at this entry.
Could you share what pIC50 was measured for N#Cc1ncnc(NC2CN(Cc3ccc(-n4c(-c5cccnc5N)nc5ccc(-c6ccccc6)nc54)cc3)C2)n1 [Example 300] , tested on full length AKT E17K (Homo sapiens, UniProt P31749, E17K)? 7.22 to 7.82

---

# MEASURED ON: full length AKT E17K (Homo sapiens, UniProt P31749, E17K)
# Construct: host or cells: HEK-293 (ATCC CRL-1573)
# PROTOCOL DESCRIPTION: NanoBRET Target Engagement (TE) Assay
# Type: cell-based
# ASSAY CONTEXT: competitive tracer displacement in living cells, read-out: AKT1 E17K IC50
pIC50: −log10 of the molar value.
# Lookup of reported pIC50 keyed by entry

Observe how each entry below is paired with its result.
COMPOUND | MEASURED ON | MEASURED VALUE
C[C@@H]1CN(Cc2ccc(-n3c(-c4cccnc4N)nc4ccc(-c5ccccc5)nc43)cc2)C[C@@H](C)N1c1ccnc(C#N)n1 [Example 195] | full length AKT E17K (Homo sapiens, UniProt P31749, E17K) | > 7.82
CN(c1ccnc(C#N)n1)C1CCN(Cc2ccc(-n3c(-c4cccnc4N)nc4ccc(-c5ccccc5)nc43)cc2)CC1 [Example 156] | full length AKT E17K (Homo sapiens, UniProt P31749, E17K) | 7.22 to 7.82
N#Cc1ccnc(N2CCN(Cc3ccc(-n4c(-c5cccnc5N)nc5ccc(-c6ccc(F)cc6)nc54)cc3)CC2)n1 [Example 243] | full length AKT E17K (Homo sapiens, UniProt P31749, E17K) | 6.22 to 7.22
N#Cc1cccc(C(=O)NCc2ccc(-n3c(-c4cccnc4N)nc4cc(-c5ccccc5)cnc43)cc2)n1 [Example 168] | full length AKT E17K (Homo sapiens, UniProt P31749, E17K) | 5.00 to 6.22
N#Cc1cc(C(=O)N2CCN(Cc3ccc(-n4c(-c5cccnc5N)nc5cc(-c6ccccc6)cnc54)cc3)CC2)ccn1 [Example 137] | full length AKT E17K (Homo sapiens, UniProt P31749, E17K) | 5.00 to 6.22
N#Cc1cc(NC2CCN(Cc3ccc(-n4c(-c5cccnc5N)nc5ccc(-c6cccc(F)c6)nc54)cc3)CC2)ncn1 [Example 311] | full length AKT E17K (Homo sapiens, UniProt P31749, E17K) | > 7.82

Consider the compound N#Cc1ncccc1C(=O)NC1CCN(Cc2ccc(-n3c(-c4cccnc4N)nc4cccnc43)cc2)CC1 [Example 27] and give its measured pIC50. 5.00 to 6.22

Consider the compound N#Cc1cc(N2CCCN(Cc3ccc(-n4c(-c5cccnc5N)nc5ccc(-c6ccccc6)nc54)cc3)CC2)ncn1 [Example 215] and give its measured pIC50. > 7.82

Consider the compound N#Cc1ccnc(NC2C3CCC2CN(Cc2ccc(-n4c(-c5cccnc5N)nc5ccc(-c6ccccc6)nc54)cc2)C3)n1 (centres unmarked) [Example 231] and give its measured pIC50. 5.00 to 6.22

Consider the compound N#Cc1cnnc(N2CCN(Cc3ccc(-n4c(-c5cccnc5N)nc5ccc(-c6ccccc6)nc54)cc3)CC2)c1 [Example 53] and give its measured pIC50. 6.22 to 7.22

Consider the compound N#Cc1nccc(NC2CCN(Cc3ccc(-n4c(-c5cccnc5N)nc5ccc(C6=CCCCC6)nc54)cc3)CC2)n1 [Example 263] and give its measured pIC50. 7.22 to 7.82

Consider the compound N#Cc1nccc(N2CCN(Cc3ccc(-n4c(-c5cccnc5N)nc5cccnc54)cc3)CC2)n1 [Example 18] and give its measured pIC50. 6.22 to 7.22
